target: c-Ret on NB41A3-mRL3 cells (UniProt P35546 29-1115, limits assumed); experiment: cell-based or functional assay
Sequence (P35546 29-1115 limits assumed): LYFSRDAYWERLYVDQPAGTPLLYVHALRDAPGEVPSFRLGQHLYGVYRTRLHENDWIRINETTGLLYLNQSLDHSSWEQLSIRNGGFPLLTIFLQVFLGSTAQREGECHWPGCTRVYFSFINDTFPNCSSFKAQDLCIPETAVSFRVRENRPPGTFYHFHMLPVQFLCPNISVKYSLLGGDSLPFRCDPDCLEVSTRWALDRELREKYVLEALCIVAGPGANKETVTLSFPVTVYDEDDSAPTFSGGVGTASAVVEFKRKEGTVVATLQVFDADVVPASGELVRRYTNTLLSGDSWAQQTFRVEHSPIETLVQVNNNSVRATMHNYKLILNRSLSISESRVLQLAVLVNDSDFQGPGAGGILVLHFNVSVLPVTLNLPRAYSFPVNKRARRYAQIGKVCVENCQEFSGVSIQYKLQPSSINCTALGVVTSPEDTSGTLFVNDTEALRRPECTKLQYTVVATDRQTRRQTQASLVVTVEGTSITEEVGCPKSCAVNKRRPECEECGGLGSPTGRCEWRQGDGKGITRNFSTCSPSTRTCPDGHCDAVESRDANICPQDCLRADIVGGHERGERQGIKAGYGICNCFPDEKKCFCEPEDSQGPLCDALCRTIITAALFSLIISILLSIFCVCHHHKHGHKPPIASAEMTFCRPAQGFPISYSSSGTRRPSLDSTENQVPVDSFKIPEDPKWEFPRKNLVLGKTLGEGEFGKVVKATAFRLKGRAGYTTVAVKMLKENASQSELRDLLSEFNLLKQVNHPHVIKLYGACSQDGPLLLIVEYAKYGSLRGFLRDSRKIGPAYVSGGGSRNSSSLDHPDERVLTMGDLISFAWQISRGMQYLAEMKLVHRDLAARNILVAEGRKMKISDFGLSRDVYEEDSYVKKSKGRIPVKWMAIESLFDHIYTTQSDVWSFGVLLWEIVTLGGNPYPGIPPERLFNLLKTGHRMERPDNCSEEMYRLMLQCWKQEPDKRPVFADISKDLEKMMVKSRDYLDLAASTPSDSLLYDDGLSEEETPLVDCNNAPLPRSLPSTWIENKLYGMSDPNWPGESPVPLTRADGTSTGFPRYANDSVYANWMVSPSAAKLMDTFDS
Property: KIRA: ∼Max Efficacy vs WT; scope: individual binders

{"columns": ["Binder", "Quantity measured", "Experimental value"],
 "data": [
  ["2 X 10 kDa PEG-NBN (ligand, 10 kDa PEG on amino acid 1 of each chain (PEGylated amino acids 1,1)) AGTRSSRARATDARGCRLRSQLVPVSALGLGHSSDELIRFRFCSGSCRRARSPHDLSLASLLGAGALRSPPGSRPISQPCCRPTRYEAVSFMDVNSTWRTVDHLSATACGCLG", "KIRA: ∼Max Efficacy vs WT", "~72%"]
]}

(Q) Dear colleague, I am looking for the recorded KIRA: ∼Max Efficacy vs WT of the following binder: 4 X 5 kDa PEG NBN106-N95K (ligand, 5 kDa PEG on the amino-terminal amino acid and on Lys95 of each chain (PEGylated amino acids 1,1,95,95)) ARATDARGCRLRSQLVPVSALGLGHSSDELIRFRFCSGSCRRARSPHDLSLASLLGAGALRSPPGSRPISQPCCRPTRYEAVSFMDVKSTWRTVDHLSATACGCLG
(A) ~80%

Values were extracted from patent EP2246362B1.
